Measured values drawn from patent US5532259A for this set.

tested on: Bone marrow mouse (M-CSF, GM CSF); test: Cell proliferation test, bone marrow; format: cell-based; conditions: 72 h, read-out: ED50 (concentration at which a 50% inhibition occurs)
property: IC50 (µM)
Could you give me the number in µM? Just the number is fine.

// returns reported IC50 for input Cc1oncc1C(=O)Nc1ccc(C(F)(F)F)cc1 [Compound 1]
5

###

system: DA-1 mouse tumor (IL-3); assay: Cell proliferation test, DA-1; type: cell-based; settings: 72 h, read-out: ED50 (concentration at which a 50% inhibition occurs)
property: pIC50
Scale note: pIC50 = -log10(concentration in M).

pIC50 of "Cc1oncc1C(=O)Nc1ccc(C(F)(F)F)cc1" on DA-1 mouse tumor (IL-3)?
5.30

###

test system: 7D4 rat hybridoma; experiment: Cell proliferation test, 7D4; assay type: cell-based; conditions: 72 h, read-out: ED50 (concentration at which a 50% inhibition occurs)
pIC50: −log10 of the molar value.
property: pIC50

// returns reported pIC50 for input "Cc1oncc1C(=O)Nc1ccc(C(F)(F)F)cc1"
≥ 6.00

###

assay: Acute toxicity after intraperitoneal administration, mouse; details: in vivo, ip, NMRI mouse, 3 weeks, Litchfield and Wilcoxon
property: LD50 at 504 h

// returns reported LD50 at 504 h for input "C/C(O)=C(\C#N)C(=O)Nc1ccc(C(F)(F)F)cc1"
100 to 200 mg/kg

###

system: Spleen T (con A and PWM); assay: Mitogen-induced lymphocyte proliferation, Spleen T; type: cell-based; conditions: Mus musculus, T-cell, 64 h, 48 h + 16 h with tritium thymidine, read-out: ED50 (concentration at which a 50% inhibition occurs)
property: IC50

IC50 of "Cc1oncc1C(=O)Nc1ccc(C(F)(F)F)cc1" on Spleen T (con A and PWM)?
10 µM

###

assay: Acute toxicity on oral administration, rat; conditions: in vivo, SD rat, 3 weeks, Litchfield and Wilcoxon
property: LD50 at 504 h (mg/kg)
Could you give me the number in mg/kg? Just the number is fine.

// returns reported LD50 at 504 h for input C/C(O)=C(\C#N)C(=O)Nc1ccc(C(F)(F)F)cc1 [Compound 2]
160

// returns reported LD50 at 504 h for input Cc1oncc1C(=O)Nc1ccc(C(F)(F)F)cc1 [Compound 1]
235

###

test: Acute toxicity on oral administration, mouse; settings: in vivo, NMRI mouse, 3 weeks, Litchfield and Wilcoxon
property: LD50 at 504 h (mg/kg)
Could you give me the number in mg/kg? Just the number is fine.

// returns reported LD50 at 504 h for input "Cc1oncc1C(=O)Nc1ccc(C(F)(F)F)cc1"
445
